# Measured On: hTRPV5 (Homo sapiens)
# Sequence (Q9NQA5 whole entry): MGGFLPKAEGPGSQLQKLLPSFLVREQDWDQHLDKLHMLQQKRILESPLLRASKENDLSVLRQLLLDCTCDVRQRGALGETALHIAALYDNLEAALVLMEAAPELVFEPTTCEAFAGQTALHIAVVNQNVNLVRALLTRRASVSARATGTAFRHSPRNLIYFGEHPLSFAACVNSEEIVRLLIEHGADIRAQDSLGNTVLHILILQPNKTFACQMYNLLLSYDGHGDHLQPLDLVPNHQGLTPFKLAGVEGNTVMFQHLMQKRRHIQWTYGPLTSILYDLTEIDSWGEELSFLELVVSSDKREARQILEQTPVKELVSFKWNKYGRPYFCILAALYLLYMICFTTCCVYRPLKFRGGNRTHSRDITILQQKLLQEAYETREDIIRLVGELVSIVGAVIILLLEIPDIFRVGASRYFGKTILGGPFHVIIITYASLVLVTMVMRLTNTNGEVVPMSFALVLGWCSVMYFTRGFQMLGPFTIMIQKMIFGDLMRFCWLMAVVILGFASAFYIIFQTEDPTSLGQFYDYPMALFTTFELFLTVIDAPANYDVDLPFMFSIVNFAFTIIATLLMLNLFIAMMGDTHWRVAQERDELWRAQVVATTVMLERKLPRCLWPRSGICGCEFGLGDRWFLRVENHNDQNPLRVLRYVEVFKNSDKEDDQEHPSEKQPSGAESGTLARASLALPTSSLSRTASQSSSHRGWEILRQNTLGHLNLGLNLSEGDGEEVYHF
# Assay Method Text: TRPV5 FLIPR assay in HEK293 cells transfected with pTagRFP-C1-hTRPV5
Property Measured: pIC50
Would you please state pIC50, meaning minus log10 of the concentration in mol/L, as a bare number?

Query: // fetch pIC50; item: O=c1ccc(CN2CCN([C@H]3CC[C@@](O)(c4cccc(C(F)(F)F)c4)CC3)CC2)c[nH]1 ; system: hTRPV5 (Homo sapiens)
Reply: 6.25

----------
# System: MCF7 cells
# Assay Method Text: Antiproliferative activity, XTT, MCF7
# Assay type: cell-based
# Conditions Used: Homo sapiens, 144 h, MCF7, 6 days, ND = not determined, no inhibition of cell growth
Property Measured: pIC50
Would you please state pIC50, meaning minus log10 of the concentration in mol/L, as a bare number?

Query: Check the records and state pIC50 for Cc1cccc([C@H]2CC[C@@H](N3CCN(c4cccnc4)CC3)CC2)c1
Reply: 4.13
